Cited source for all entries: PubChem BioAssay (NCI)

- Test system: LOX IMVI melanoma
- ASSAY_PROTOCOL: NCI tumour cell line growth inhibition, 48 h
RECORDED_ENDPOINT: GI50

Ask: Request the reported GI50 associated with O=C1NC(=NCCCc2ccccc2)S/C1=C\c1ccc2ncccc2c1
Result: 5120 nM

Ask: Request the reported GI50 associated with COc1cc(-c2nn(-c3cccc(NC(=O)c4ccc(Cl)c(C(F)(F)F)c4)c3)cc2-c2ccncc2)ccc1Cl
Result: 1920 nM

Ask: Request the reported GI50 associated with Cc1cc(Cl)nc(N(CCCNc2ccnc3cc(Cl)ccc23)Cc2ccco2)n1
Result: 2070 nM

Ask: Request the reported GI50 associated with O=C(COc1cccc(/C=C2\CSc3ccccc3C2=O)c1)Nc1nccs1
Result: 1580 nM

Ask: Request the reported GI50 associated with CC[C@H](C)[C@H](NC(=O)CN(C)C)C(=O)N(C)[C@H](C[C@@H](OC(C)=O)c1nc(C(=O)NC23CC(C(=O)OC)(C2)C3)cs1)C(C)C
Result: 276 nM

Ask: Request the reported GI50 associated with COc1ccc(N=N/C(C(=O)C(F)(F)F)=C(\O)c2ccc(Cl)cc2)cc1
Result: 3290 nM

Ask: Request the reported GI50 associated with CN(CC(=O)N(Cc1ccc(C2CCCCC2)cc1)c1ccc(C(=O)O)cc1)S(=O)(=O)c1c(F)c(F)c(F)c(F)c1F
Result: 1610 nM

Ask: Request the reported GI50 associated with O=C(Nc1nc2ccccc2s1)Nc1ccc([N+](=O)[O-])cc1Cl
Result: 2660 nM

Ask: Request the reported GI50 associated with COc1ccc(/C(C#N)=C2C=C/C(=N/O)c3ccccc3\2)cc1
Result: 382 nM
